Biological target: trASADH (T. rubrum aspartate-β-semialdehyde dehydrogenase) (Trichophyton rubrum, UniProt A0A080WMA9)
Sequence (A0A080WMA9 1-362): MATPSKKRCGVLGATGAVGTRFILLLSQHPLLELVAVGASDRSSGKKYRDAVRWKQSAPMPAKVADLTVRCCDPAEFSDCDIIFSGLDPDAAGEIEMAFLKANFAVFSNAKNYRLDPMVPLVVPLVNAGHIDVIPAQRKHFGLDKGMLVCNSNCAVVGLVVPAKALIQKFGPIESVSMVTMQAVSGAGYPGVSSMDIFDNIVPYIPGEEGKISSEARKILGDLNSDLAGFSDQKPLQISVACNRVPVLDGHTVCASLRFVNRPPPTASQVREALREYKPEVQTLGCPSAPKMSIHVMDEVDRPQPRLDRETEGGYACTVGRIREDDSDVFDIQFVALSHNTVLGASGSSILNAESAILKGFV
reported-metric: Kd (µM)
Answer format: numeric, µM implied, no suffix.

Qu. Name the recorded Kd for `NC(=O)c1ccc[n+]([C@@H]2O[C@H](COP(=O)(O)OP(=O)(O)OC[C@H]3O[C@@H](n4cnc5c(N)ncnc54)[C@H](OP(=O)(O)O)[C@@H]3O)[C@@H](O)[C@H]2O)c1` .
Ans. 76.9

The origin of these recorded values is paper PMC4751538.
